Just for reference, patent US20090053750A1 is where these values come from.

# EXPERIMENTAL SYSTEM: T1, class I MHC receptor HLA-A2 on T2 cells (human)
# T1 construct: detected on the cell surface with a mouse anti-human HLA-A2 monoclonal antibody and goat anti-mouse IgG F(ab')2-FITC; also called HLA-A2 receptor; HLA-A2 class I MHC
# ASSAY INFO: T2 cells pulsed with peptide + b2m, anti-HLA-A2 flow cytometry; Assay #1
ATTRIBUTE MEASURED: fluorescence index

Below: 3 binders and their reported fluorescence index.
[[record]]
binder = "SLQESGLKV [Filamin B peptide #4]"
data_value = 1.96

[[record]]
binder = "GLAPLEVRV [Filamin B peptide #3]"
data_value = 4.21

[[record]]
binder = "GQGDVMVFV [Filamin B peptide #6]"
data_value = 2.67


I = LILGLVWTL [Filamin B peptide #1]
II = KLILGLVWT [Filamin B peptide #7]
Smaller fluorescence index value? Options are I and II Pick one; state its label.
II
(II: 1.38, I: 3.46)
